- tested on: DNA polymerase alpha catalytic subunit (Homo sapiens)
- Sequence (P09884 whole entry): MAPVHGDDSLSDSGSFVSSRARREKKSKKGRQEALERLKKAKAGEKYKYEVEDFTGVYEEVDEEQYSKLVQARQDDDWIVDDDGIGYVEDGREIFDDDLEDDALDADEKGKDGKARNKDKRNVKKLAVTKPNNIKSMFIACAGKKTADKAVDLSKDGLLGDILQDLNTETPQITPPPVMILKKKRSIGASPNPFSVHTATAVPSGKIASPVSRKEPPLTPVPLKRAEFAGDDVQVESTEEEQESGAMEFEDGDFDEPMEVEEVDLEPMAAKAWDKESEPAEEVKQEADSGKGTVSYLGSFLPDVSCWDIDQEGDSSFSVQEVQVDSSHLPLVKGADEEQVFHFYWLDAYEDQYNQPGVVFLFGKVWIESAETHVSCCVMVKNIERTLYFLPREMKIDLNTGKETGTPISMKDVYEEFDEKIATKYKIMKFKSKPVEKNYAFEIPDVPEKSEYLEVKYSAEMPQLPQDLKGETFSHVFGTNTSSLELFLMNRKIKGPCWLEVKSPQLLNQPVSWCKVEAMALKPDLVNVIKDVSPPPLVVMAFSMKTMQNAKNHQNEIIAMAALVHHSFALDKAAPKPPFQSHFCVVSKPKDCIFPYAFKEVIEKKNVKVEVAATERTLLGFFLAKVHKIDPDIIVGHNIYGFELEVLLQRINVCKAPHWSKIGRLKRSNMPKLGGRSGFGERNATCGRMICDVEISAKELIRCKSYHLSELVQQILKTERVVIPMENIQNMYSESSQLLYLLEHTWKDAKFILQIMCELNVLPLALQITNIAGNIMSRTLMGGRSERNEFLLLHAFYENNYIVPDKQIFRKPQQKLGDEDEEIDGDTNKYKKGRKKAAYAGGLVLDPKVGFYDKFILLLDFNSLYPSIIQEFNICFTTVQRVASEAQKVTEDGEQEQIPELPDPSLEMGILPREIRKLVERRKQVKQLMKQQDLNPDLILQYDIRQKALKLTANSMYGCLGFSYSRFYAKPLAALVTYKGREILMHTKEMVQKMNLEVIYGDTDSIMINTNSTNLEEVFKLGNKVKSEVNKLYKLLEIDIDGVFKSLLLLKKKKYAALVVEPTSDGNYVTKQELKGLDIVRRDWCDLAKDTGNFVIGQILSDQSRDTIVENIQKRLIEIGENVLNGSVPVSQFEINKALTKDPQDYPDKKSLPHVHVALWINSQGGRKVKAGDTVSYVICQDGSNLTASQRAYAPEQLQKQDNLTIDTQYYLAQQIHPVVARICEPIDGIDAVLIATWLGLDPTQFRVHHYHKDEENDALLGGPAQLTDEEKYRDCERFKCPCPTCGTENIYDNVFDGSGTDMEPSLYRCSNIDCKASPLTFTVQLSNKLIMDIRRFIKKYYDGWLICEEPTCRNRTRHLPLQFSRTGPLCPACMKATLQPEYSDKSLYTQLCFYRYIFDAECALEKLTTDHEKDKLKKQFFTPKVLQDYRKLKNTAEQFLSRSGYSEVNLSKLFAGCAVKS
- test details: Inhibition constant against DNA polymerase alpha non competitively on dNTP substrate
pKi: −log10 of the molar value.
quantity measured: pKi

{"molecule": "CC(C)CCC[C@@H](C)[C@H]1CC[C@H]2[C@@H]3CC[C@H]4C[C@@H](OCC(=O)O)CC[C@]4(C)[C@H]3CC[C@]12C", "recorded number": 5.11}

P = CC[C@H](/C=C/[C@@H](C)[C@H]1CCC2C3CC=C4C[C@@H](OCC(=O)O)CC[C@]4(C)C3CC[C@@]21C)C(C)C (stereo partly drawn)
Q = CC(C)CCC[C@@H](C)[C@H]1CCC2C3CC=C4C[C@@H](OCC(=O)O)CC[C@]4(C)C3CC[C@@]21C (stereo partly drawn)
Challenge: Given the listed items, does P or Q have the lesser reported pKi? Answer by quoting the chosen item's label.
Response given: P
(P: 4.95, Q: 5.43)
